# TARGET SYSTEM: Avi-KRAS G12R (1-169) GppNHp/RAF1 RBD-3xFLAG (52-151) (Homo sapiens, UniProt P01116, G12R)
# Construct: Avi-KRAS G12R (1-169)
# Sequence (P01116 1-169 isoform P01116-2 G12R): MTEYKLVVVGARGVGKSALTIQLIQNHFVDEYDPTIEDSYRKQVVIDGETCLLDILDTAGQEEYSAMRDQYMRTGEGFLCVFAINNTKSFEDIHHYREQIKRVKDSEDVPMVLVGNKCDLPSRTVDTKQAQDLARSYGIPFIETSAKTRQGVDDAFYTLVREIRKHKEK
# MEASUREMENT DESCRIPTION: Raf1-KRAS G12R-GppNHP disruption HTRF assay (Biological Example 1)
# Assay type: binding
# EXPERIMENTAL CONDITIONS: KRAS G12R, GppNHp-loaded; Table 11
READOUT TYPE: IC50

[[record]]
compound = "CN(c1nc(OC[C@@H]2CC3(CC3)CN2C)nc2c(F)c(-c3ccc(F)c4sc(N)c(C#N)c34)c(C(F)(F)F)cc12)C1CC(O)C1 (some centres unmarked) [Compound 41]"
assay_result = "0.1 to 1 µM"


So for CCC(=O)N1C[C@H](C)N(c2nc(OC[C@@]34CCCN3C[C@H](F)C4)nc3c(F)c(-c4ccc(F)c5sc(N)c(C#N)c45)c(C(F)(F)F)cc23)C[C@H]1C (atropisomer, axis not shown) [Compound 99] , the logged IC50 turned out to be 1 to 10 µM

So for CCN(CCCO)c1nc(OC[C@@]23CCCN2C[C@H](F)C3)nc2c(F)c(-c3ccc(F)c4sc(N)c(C#N)c34)c(C(F)(F)F)cc12 [Compound 175] , the logged IC50 turned out to be 0.1 to 1 µM

So for CN(c1nc(OC[C@@]23CCCN2C[C@H](F)C3)nc2c(F)c(-c3ccc(F)c4sc(N)c(C#N)c34)c(C(F)(F)F)cc12)[C@@H]1C[C@H](O)[C@@H]1CO [Compound 37] , the logged IC50 turned out to be < 0.1 µM

So for CC(C)(O)[C@H]1CCN1c1nc(OC[C@@]23CCCN2C[C@H](F)C3)nc2c(F)c(-c3ccc(F)c4sc(N)c(C#N)c34)c(C(F)(F)F)cc12 [Compound 269] , the logged IC50 turned out to be 0.1 to 1 µM

* * *

# TARGET SYSTEM: Avi-KRAS G12R (1-169) GppNHp/RAF1 RBD-3xFLAG (52-151) (Homo sapiens, UniProt P01116, G12R)
# Construct: Avi-KRAS G12R (1-169)
# MEASUREMENT DESCRIPTION: Raf1-KRAS G12R-GppNHP disruption HTRF assay (Biological Example 1)
# Type: binding
# EXPERIMENTAL CONDITIONS: KRAS G12R, GppNHp-loaded; class symbols
# Method: A protein:protein interaction (PPI) Homogeneous Time Resolved Fluorescence (HTRF) assay was used to determine the effectiveness of compounds of the present disclosure in disrupting KRAS protein and effector RAF1 binding. The assay buffer included: 50 mM Tris pH 7.5, 100 mM NaCl, 5 mM MgCl2, 0.1% BSA, 0.01% Tween, and 10% DMSO. The bead buffer included: 50 mM Tris pH 7.5, and 0.01% Tween 20. […] Data was reported as percentage of activity, with DMSO as 100%. Data was plotted and analyzed using Prism 8.
READOUT TYPE: IC50

Look over these answered cases.
[[record]]
compound = "CCN(c1nc(OC[C@@]23CCCN2C[C@H](F)C3)nc2c(F)c(-c3ccc(F)c4sc(N)c(C#N)c34)c(C(F)(F)F)cc12)[C@H]1CCN(C(=O)C2CN(C(C)=O)C2)C1 (atropisomer, axis not shown)"
assay_result = "< 100 nM"

[[record]]
compound = "CCN(c1nc(OC[C@@]23CCCN2C[C@H](F)C3)nc2c(F)c(-c3ccc(F)c4sc(N)c(C#N)c34)c(C(F)(F)F)cc12)[C@H]1CCN(C(=O)c2cnnn2C)C1 (atropisomer, axis not shown)"
assay_result = "100 to 1000 nM"

[[record]]
compound = "CCN(c1nc(OC[C@@]23CCCN2C[C@H](F)C3)nc2c(F)c(-c3ccc(F)c4sc(N)c(C#N)c34)c(C(F)(F)F)cc12)[C@H]1C[C@H]2CN(C3CCC3)C(=O)N2C1 (atropisomer, axis not shown)"
assay_result = "< 100 nM"


// below: IC50 requested for another compound
So for CCN(c1nc(OC[C@@]23CCCN2C[C@H](F)C3)nc2c(F)c(-c3ccc(F)c4sc(N)c(C#N)c34)c(C(F)(F)F)cc12)[C@@H]1CC(=O)N(C2CC2)C1 (atropisomer, axis not shown) , the logged IC50 turned out to be 1000 to 10000 nM

* * *

Here, each record is paired with measured IC50 data.
# TARGET SYSTEM: Avi-KRAS G12V (2-169) GTP/RAF1 RBD-3xFLAG (51-131) (Homo sapiens, UniProt P01116, G12V)
# Construct: Avi-KRAS G12V (2-169)
# Sequence (P01116 2-169 isoform P01116-2 G12V): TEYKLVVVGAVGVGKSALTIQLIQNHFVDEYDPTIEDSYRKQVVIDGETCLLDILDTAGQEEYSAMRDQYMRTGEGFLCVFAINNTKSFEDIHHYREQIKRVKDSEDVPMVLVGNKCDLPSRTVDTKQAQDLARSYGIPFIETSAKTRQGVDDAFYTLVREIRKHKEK
# MEASUREMENT DESCRIPTION: Raf1-KRAS G12V-GTP disruption HTRF assay (Biological Example 3)
# Format: binding
# EXPERIMENTAL CONDITIONS: KRAS G12V, GTP-loaded

Look over these answered cases.
[[record]]
compound = "CCN(c1nc(OC[C@@]23CCCN2C[C@H](F)C3)nc2c(F)c(-c3ccc(F)c4sc(N)c(C#N)c34)c(C(F)(F)F)cc12)[C@H]1C[C@H]2CN(C3CCC3)C(=O)N2[C@@H]1C (atropisomer, axis not shown) [Compound 970]"
target_system = "Avi-KRAS G12V (2-169) GTP/RAF1 RBD-3xFLAG (51-131) (Homo sapiens, UniProt P01116, G12V)"
assay_result = "100 to 1000 nM"

[[record]]
compound = "CCN(c1nc(OC[C@@]23CCCN2C[C@H](F)C3)nc2c(F)c(-c3ccc(F)c4sc(N)c(C#N)c34)c(C(F)(F)F)cc12)[C@H]1CCN(C(=O)OC)[C@@H]1COC (atropisomer, axis not shown) [Compound 923]"
target_system = "Avi-KRAS G12V (2-169) GTP/RAF1 RBD-3xFLAG (51-131) (Homo sapiens, UniProt P01116, G12V)"
assay_result = "100 to 1000 nM"

[[record]]
compound = "CCN(c1nc(OC[C@@]23CCCN2C[C@H](F)C3)nc2c(F)c(-c3ccc(F)c4sc(N)c(C#N)c34)c(C(F)(F)F)cc12)[C@H]1CCN(C(=O)OCC(F)(F)F)C1 (atropisomer, axis not shown) [Compound 849]"
target_system = "Avi-KRAS G12V (2-169) GTP/RAF1 RBD-3xFLAG (51-131) (Homo sapiens, UniProt P01116, G12V)"
assay_result = "100 to 1000 nM"

[[record]]
compound = "CCN(c1nc(OC[C@@]23CCCN2C[C@H](F)C3)nc2c(F)c(-c3ccc(F)c4sc(N)c(C#N)c34)c(C(F)(F)F)cc12)[C@H]1CCN(C(=O)c2cnc(Cl)s2)C1 (atropisomer, axis not shown) [Compound 905]"
target_system = "Avi-KRAS G12V (2-169) GTP/RAF1 RBD-3xFLAG (51-131) (Homo sapiens, UniProt P01116, G12V)"
assay_result = "100 to 1000 nM"

[[record]]
compound = "N#Cc1c(N)sc2c(F)ccc(-c3c(C(F)(F)F)cc4c(N5CCCC(c6cccnc6)C5)nc(OC[C@@]56CCCN5C[C@H](F)C6)nc4c3F)c12 (stereo partly drawn) [Compound 944]"
target_system = "Avi-KRAS G12V (2-169) GTP/RAF1 RBD-3xFLAG (51-131) (Homo sapiens, UniProt P01116, G12V)"
assay_result = "> 10000 nM"


So for CCC(=O)N1CC[C@@H](N(CC)c2nc(OC[C@@]34CCCN3C[C@H](F)C4)nc3c(F)c(-c4ccc(F)c5sc(N)c(C#N)c45)c(C(F)(F)F)cc23)[C@H]1C (atropisomer, axis not shown) [Compound 523] , the logged IC50 turned out to be ≤ 100 nM

So for CCN(c1nc(OC[C@@]23CCCN2C[C@H](F)C3)nc2c(F)c(-c3ccc(F)c4sc(N)c(C#N)c34)c(C(F)(F)F)cc12)[C@H]1C[C@H](C)N(C(=O)[C@@H]2CCO2)C1 (atropisomer, axis not shown) [Compound 922] , the logged IC50 turned out to be ≤ 100 nM

So for CCN(c1nc(OC[C@@]23CCCN2C[C@H](F)C3)nc2c(F)c(-c3ccc(F)c4sc(N)c(C#N)c34)c(C(F)(F)F)cc12)[C@H]1CCN(C(=O)N2CC(F)C2)C1 (atropisomer, axis not shown) [Compound 606] , the logged IC50 turned out to be ≤ 100 nM

So for CCN(c1nc(OC[C@@]23CCCN2C[C@H](F)C3)nc2c(F)c(-c3ccc(F)c4sc(N)c(C#N)c34)c(C(F)(F)F)cc12)[C@H]1C[C@H]2COCC(=O)N2C1 (atropisomer, axis not shown) [Compound 882] , the logged IC50 turned out to be ≤ 100 nM

So for CCN(c1nc(OC[C@@]23CCCN2C[C@H](F)C3)nc2c(F)c(-c3ccc(F)c4sc(N)c(C#N)c34)c(C(F)(F)F)cc12)[C@H]1C[C@H]2C[C@@H](C)C(=O)N2C1 (atropisomer, axis not shown) [Compound 866] , the logged IC50 turned out to be ≤ 100 nM
